In this section, each of the compounds is paired with its reported growth.
tested on: SK-MEL-5 melanoma; assay: NCI-60 one-dose screen, 48 h (100 = growth as untreated, 0 = no growth, -100 = all killed); conditions: 10 µM unless noted
About 83,000 compounds went through this panel and 20% of them were active in at least one assay; those are over-represented in the sample as a whole.
Property: growth (%)

Compound: COc1ccc(C(=O)CC(c2ccccc2)C(C#N)c2ccccc2)cc1 (stereo unspecified)
Value: 86.6
//
Compound: CC1=C/C(O)CC(=O)Cc2nc(co2)C(=O)N2CCC=C2C(=O)OC(C(C)C)C(C)/C=C\C(=O)NC/C=C\1 (stereo unspecified)
Value: 96.7
//
Compound: O=C(Cc1ccccc1)c1ccc(O)c(Cl)c1
Value: 27.5
//
Compound: c1ccc(CNCCNCc2ccccc2)cc1
Value: 107
//
Compound: COc1ccc(N/C=C/C2=[N+](C)c3ccccc3C2(C)C)c(OC)c1
Value: 90.9
//
Compound: CN(C)CC1CCCCCC(CN(C)C)C1=O (stereo unspecified)
Value: 104
//
Compound: Oc1ccc(Cc2ccccc2Cl)c(O)c1
Value: 97.7
//
Compound: CC(C)C(C)(C)c1ccc(O)cc1
Value: 99.9
//
Compound: OC1COC(OCc2ccccc2)C(O)C1O (stereo unspecified)
Value: 101
//
Compound: CCCCCCCCCCCCCCCCC(C(=O)O)C(O)(CC(=O)O)C(=O)O (stereo unspecified)
Value: 107
//
Compound: c1ccc(-c2nc3ccccc3s2)cc1
Value: 89.8
//
Compound: C/C(=C\c1ccccc1)c1ccccn1
Value: 103
//
Compound: O=C(O)CCCl
Value: 99.2
//
Compound: CC(C)(O)C(=O)O
Value: 103
//
Compound: Brc1ccc(SSc2ccc(Br)cc2)cc1
Value: 54.7
//
Compound: CCCCCCCCCCCCCCCc1ccc(N)c(OC2OC(CO)C(O)C(O)C2O)c1 (stereo unspecified)
Value: 111
